- Tested on: 201T
- ASSAY SUMMARY: relative viability (nuclei count vs DMSO), 5 days (fraction); higher = more cells survive
- RUN PARAMETERS: first compound 0.1265 µM
ENDPOINT: relative viability
Reply: number alone, nothing else.

As a guide, the following entries are already answered.
• COc1cc(N2CCC(C(N)=O)CC2)ccc1Nc1nc(N)c(Cl)c(Nc2ccccc2S(=O)(=O)C(C)C)n1 [HG-5-88-01] + CC1(C)CCC(c2ccc(Cl)cc2)=C(CN2CCN(c3ccc(C(=O)NS(=O)(=O)c4ccc(N[C@H](CCN5CCOCC5)CSc5ccccc5)c(S(=O)(=O)C(F)(F)F)c4)cc3)CC2)C1 [Navitoclax] (partner 0.5 µM) = 1.22
• Clc1ccc(Nc2nnc(Cc3ccncc3)c3ccccc23)cc1 [Vatalanib] + COc1cccc2cc(-c3nc([C@H]4CC[C@H](C(=O)O)CC4)n4ncnc(N)c34)[nH]c12 [OSI-027] (partner 0.5 µM) = 0.698

Req: Would you mind telling me what relative viability value was observed for C[C@@H]1CN(CC(=O)Nc2ccc3c(c2)Cc2cccc(-c4cc(=O)cc(N5CCOCC5)o4)c2S3)C[C@H](C)O1 + CC(=O)Nc1cccc(-n2c(=O)n(C3CC3)c(=O)c3c(Nc4ccc(I)cc4F)n(C)c(=O)c(C)c32)c1 [Trametinib] (partner 0.02 µM) ?
Resp: 0.728

Req: Entry COc1cc(N2CCC(C(N)=O)CC2)ccc1Nc1nc(N)c(Cl)c(Nc2ccccc2S(=O)(=O)C(C)C)n1 [HG-5-88-01] + N=C(N)NC(=N)NCCc1ccccc1 [Phenformin] (partner 250 µM) : reported relative viability = ?
Resp: 0.452

Req: Quick one: relative viability of C[C@@H]1CN(CC(=O)Nc2ccc3c(c2)Cc2cccc(-c4cc(=O)cc(N5CCOCC5)o4)c2S3)C[C@H](C)O1 + C[C@]1(O)C[C@@H](c2nc(-c3ccc4ccc(-c5ccccc5)nc4c3)c3c(N)nccn32)C1 [Linsitinib] (partner 1 µM) ?
Resp: 1.01

Req: Tell me the measured relative viability of COc1cc(N2CCC(C(N)=O)CC2)ccc1Nc1nc(N)c(Cl)c(Nc2ccccc2S(=O)(=O)C(C)C)n1 [HG-5-88-01] + O=C(c1cc(Cc2n[nH]c(=O)c3ccccc23)ccc1F)N1CCN(C(=O)C2CC2)CC1 [Olaparib] (partner 8 µM) , please.
Resp: 0.844

Req: For C[C@@H]1CN(CC(=O)Nc2ccc3c(c2)Cc2cccc(-c4cc(=O)cc(N5CCOCC5)o4)c2S3)C[C@H](C)O1 + C[C@@H](Oc1cc(-c2cnn(C3CCNCC3)c2)cnc1N)c1c(Cl)ccc(F)c1Cl [Crizotinib] (partner 1 µM) , what is its reported relative viability?
Resp: 0.98
